# System tested: TGFb1 (Homo sapiens, UniProt P01137)
# Construct: purchased Abcam
# Sequence (P01137 279-390 limits assumed): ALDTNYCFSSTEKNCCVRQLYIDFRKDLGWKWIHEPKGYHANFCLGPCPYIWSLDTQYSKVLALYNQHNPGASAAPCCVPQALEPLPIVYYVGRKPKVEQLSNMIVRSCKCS
# Experiment description: ELISA binding of ligand to immobilized CLPTM1 peptide fragments
# Experimental setup: biotinylated peptide immobilized at 1 μM; ligand 100 ng/ml; OD 450-620 measured
Endpoint label: ELISA OD450 TGFb1
Write the value as a bare number.

Task: GET /values?readout=ELISA OD450 TGFb1&item= SGDYYPIIYFNDYWNLQKDYYPINESLASLPLRVSFCPLS (listed as Homo sapiens) [SEQ ID NO: 32]
Result: 0.010

Task: Give the measured ELISA OD450 TGFb1 of DTLMNLHVYISEHEHFTDFNATSALFWEQHDLVYGDWTSG (listed as Homo sapiens) [SEQ ID NO: 36] .
Result: 0.010

Task: Value lookup for ELISA OD450 TGFb1; key = TKSGFHPDPRQKALYRRLATVHMSRMINKYKRRRFQKTKN (listed as Homo sapiens) [SEQ ID NO: 37]
Result: 0.015

Task: Bench note: what ELISA OD450 TGFb1 did ARSAVVAAGGGSSGQVTSNGSIGRDPPAETQPQNPPAQPA (listed as Homo sapiens) [SEQ ID NO: 34] show?
Result: 0.043

Task: // returns reported ELISA OD450 TGFb1 for input YPINESLASLPLRVSFCPLSG (listed as Homo sapiens) [SEQ ID NO: 27]
Result: 0.011
